Reference for the values: patent US20240217981A1

assay: Kinetic solubility evaluation; assay type: physicochemical; details: thermodynamic from solid; FaSSIF (pH 6.47), 37° C., 1 hr; read-out: S (Solubility of freebase)
metric: solubility at 1 h (µg/mL)

> print(dat)
                              smiles.record             metric  recorded.result
1  COc1cc(C(F)(F)CCC(=O)N2CC3CCC(C2)N3c2ccc(C#N)cn2)ccn1  solubility at 1 h               30

* * *

biological target: human M1 receptor (Homo sapiens, UniProt P11229); assay: In vitro functional assay of muscarinic acetylcholine receptor activity (aequorin calcium flux, reversal of acetylcholine EC50 response)
Sequence (P11229 whole entry): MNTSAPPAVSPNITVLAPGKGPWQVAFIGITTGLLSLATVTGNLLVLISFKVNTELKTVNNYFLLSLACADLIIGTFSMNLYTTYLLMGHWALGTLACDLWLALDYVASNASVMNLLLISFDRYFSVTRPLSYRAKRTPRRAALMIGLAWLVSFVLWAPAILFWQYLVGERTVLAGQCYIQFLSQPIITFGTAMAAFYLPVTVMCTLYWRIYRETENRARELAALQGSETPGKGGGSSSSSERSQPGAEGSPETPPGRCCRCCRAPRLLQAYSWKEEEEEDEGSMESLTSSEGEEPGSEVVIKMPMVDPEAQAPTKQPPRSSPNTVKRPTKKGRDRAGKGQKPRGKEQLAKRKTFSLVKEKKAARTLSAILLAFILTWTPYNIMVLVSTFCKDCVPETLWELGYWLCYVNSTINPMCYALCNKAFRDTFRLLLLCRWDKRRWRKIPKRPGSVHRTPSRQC
metric: IC50

> print(dat)
                              smiles.record  recorded.result
1  COc1cc(C(F)(F)CCC(=O)N2CC3CCC(C2)N3c2ccc(C#N)cn2)ccn1          < 10 nM
